molecular target: T1, ACKR3 N127K-YFP (UniProt P25106 1-362, N127K); test: radioligand binding; HEK293 cells expressing ACKR3-YFP or mutants, pretreated 5 min at 37 °C with 100 μM phenylarsine oxide; 50 pM 125I-CXCL12 tracer in 50 mM HEPES pH 7.4, 5 mM MgCl2, 1 mM CaCl2, 0.2% BSA, with or without unlabeled CXCL12 or CXCL11, 30 min at 37 °C; bound label counted in a γ counter; IC50 taken as proxy for ligand affinity; settings: one partner purified
T1 construct: ACKR3 (CXCR7) with N127K (Ballesteros-Weinstein 3.35), made by PCR in ACKR3-YFP; also called N127^3.35K; source: HEK293, transiently transfected (polyethyleneimine), on or in cells; not shown: YFP, C-terminal, kept
T1 sequence (P25106 whole entry N127K): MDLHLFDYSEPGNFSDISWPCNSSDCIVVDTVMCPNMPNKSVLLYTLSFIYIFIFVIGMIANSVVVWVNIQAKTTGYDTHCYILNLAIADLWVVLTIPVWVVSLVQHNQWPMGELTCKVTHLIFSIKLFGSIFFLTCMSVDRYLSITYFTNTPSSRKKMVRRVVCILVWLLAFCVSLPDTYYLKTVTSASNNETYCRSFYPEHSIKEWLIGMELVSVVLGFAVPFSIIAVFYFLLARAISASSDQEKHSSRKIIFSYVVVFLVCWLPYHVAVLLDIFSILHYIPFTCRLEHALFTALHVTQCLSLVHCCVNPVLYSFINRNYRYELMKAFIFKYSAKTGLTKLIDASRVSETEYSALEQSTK
REPORTED_METRIC: IC50 (nM)
Give a bare numeral; the unit nM is implied.

Query: Name the reported IC50 value associated with the binder CXCL11 (unlabeled recombinant chemokine) (ligand, human, UniProt O14625 22-94, looked up, chemokine CXCL11 (I-TAC); called human CXCL11 in the text on scavenging by MEFs; also called I-TAC; unlabeled CXCL11; source: recombinant; gift from Amanda Nevins and Brian Volkman or from PeproTech Inc) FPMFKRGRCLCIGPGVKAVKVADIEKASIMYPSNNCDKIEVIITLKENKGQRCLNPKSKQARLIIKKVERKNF
Result: 11

The origin of these recorded values is paper PMC5777261.
